- Tested on: K562 CRISPRi cells
- test-details: Constant region variant library pooled growth screen, K562
- Format: cell-based, human
- measurement-conditions: sgRNA constant region variant; activity relative to unmodified constant region cr995; mean CRISPRi activity
Label Satisfied when Mean relative activity is at or above 0.01; otherwise label Not satisfied.

molecule | group
cr041 (nucleic acid, listed as DNA, chemistry not fully specified) guide: GCTTCAGAGCTAAGCTGGAAACAGCATAGCAAGTTTAAATAAGGCTAGTCCGTTATCAACTTGAAAAAGTGGCACCGAGTCGGTGCT | Satisfied
cr044 (nucleic acid, listed as DNA, chemistry not fully specified) guide: GTGTAAGTGCTAAGCTGGAAACAGCATAGCAAGTTTAAATAAGGCTAGTCCGTTATCAACTTGAAAAAGTGGCACCGAGTCGGTGCT | Satisfied
cr584 (nucleic acid, listed as DNA, chemistry not fully specified) guide: GTTTAAGAGCTAAGCTGGAAACAGCATAGCAAGTTTAAATATGGCTAGTCCTTTATCAACTTGAAAAAGTGGCACCGAGTCGGTGCT | Not satisfied
cr664 (nucleic acid, listed as DNA, chemistry not fully specified) guide: GTTTAAGAGCTAAGCTGGAAACAGCATAGCAACCTTAAATAAGGCTAGTCCGTTATCAACTTGAAAAAGTGGCACCGAGTCGGTGCT | Not satisfied
cr186 (nucleic acid, listed as DNA, chemistry not fully specified) guide: GTTTAAGAGCTAAGCTGGAAACAGCATAGCAAGGTTAAATAAGGCTAGTCCGTTATCAAGTTGAAAAACTGGCACCGAGTCGGTGCT | Satisfied
cr448 (nucleic acid, listed as DNA, chemistry not fully specified) guide: GTTTAAGAGCTAAGCTGGAAACAGCATAGCAACTTTAAATAAGCCTAGTGCGTTATCAACTTGAAAAAGTGGCACCGAGTCGGTGCT | Satisfied
cr507 (nucleic acid, listed as DNA, chemistry not fully specified) guide: GTTTAAGAGCTAAGCTGGAAACAGCATAGCAAGTTTAAATAATGCTAGTCAGTTATCAACTTGAAAAAGTGGCACAGAGTCTGTGCT | Satisfied
